molecular target: human GLP-1 receptor (human, UniProt P43220 24-463); experiment: cell-based or functional assay
Catalogue of GLP-1 activity (EC50, pM) values
Express your answer in pM, writing the number without its unit.

1. MLC096 (ligand) HGEGTFTSDVSSYLEEQAAKEFIAWLVRGGGGQEPGAQPGQEPGAQPGQEPGAQPGQEPGAQPGQEPGAQPGQEPGAQPGAQPGAQPGAQPGAQPGAQPGAQPGAQPGAQPARQGDHCPLGPGRCCRLHTVRASLEDLGWADWVLSPREVQVTMCIGACPSQFRAANLHAQIKTSLHRLKPDTVPAPCCVPASYNPMRLIQKTDTGVSLQTYDDLLAKDCHCI : 1.3
2. MLC089 (ligand, Moiety B (HOOC-(CH2)16-CO-gGlu-2XADO-EDA-CO-CH2) on 39C of Linker (70C of fusion polypeptide)) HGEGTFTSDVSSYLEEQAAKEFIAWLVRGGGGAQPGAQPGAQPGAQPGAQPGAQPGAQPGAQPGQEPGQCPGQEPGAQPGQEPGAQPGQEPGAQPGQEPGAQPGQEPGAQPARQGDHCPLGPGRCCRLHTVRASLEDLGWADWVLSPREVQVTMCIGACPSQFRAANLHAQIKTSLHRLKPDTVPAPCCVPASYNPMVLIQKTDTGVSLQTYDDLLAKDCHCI : 1.2
3. MLC016 (ligand, Moiety A (HOOC-(CH2)16-CO-gGlu-2XADO) on 52K of Linker (83K of fusion polypeptide)) HGEGTFTSDVSSYLEEQAAREFIAWLVRGGGGQEPGAQPGQEPGAQPGQEPGAQPGQEPGAQPGQEPGAQPGQEPGAQPGAQKGAQPGAQPGAQPGAQPGAQPGAQPGAQPARQGDHCPLGPGRCCRLHTVRASLEDLGWADWVLSPREVQVTMCIGACPSQFRAANLHAQIKTSLHRLRPDTVPAPCCVPASYNPMVLIQRTDTGVSLQTYDDLLARDCHCI : 2.5
4. MLC003 (ligand) HGEGTFTSDVSSYLEEQAAKEFIAWLVRGGGGQEPGQEPGQEPGQEPGQEPGQEPGQEPGQEPGAQPGAQPARQGDHCPLGPGRCCRLHTVRASLEDLGWADWVLSPREVQVTMCIGACPSQFRAANLHAQIKTSLHRLRPDTVPAPCCVPASYNPMVLIQRTDTGVSLQTYDDLLARDCHCI : 7.8
5. MLC103 (ligand, Moiety A (HOOC-(CH2)16-CO-gGlu-2XADO) on 71K of Linker (102K of fusion polypeptide)) HGEGTFTSDVSSYLEEQAAREFIAWLVRGGGGQEPGAQPGQEPGAQPGQEPGAQPGQEPGAQPGQEPGAQPGQEPGAQPGAQPGAQPGAQPGAQPGAQPGAKPGAQPGAQPARQGDHCPLGPGRCCRLHTVRASLEDLGWADWVLSPREVQVTMCIGACPSQFRAANLHAQIKTSLHRLRPDTVPAPCCVPASYNPMVLIQRTDTGVSLQTYDDLLARDCHCI : 0.89

Query GLP-1 activity (EC50, pM) for MLC064 (ligand, Moiety A (HOOC-(CH2)16-CO-gGlu-2XADO) on 51K of Linker (82K of fusion polypeptide)) HGEGTFTSDVSSYLEEQAAREFIAWLVRGGGGQEPGAQPGQEPGAQPGQEPGAQPGQEPGAQPGQEPGAQPGQEPGAQPGAKPGAQPGAQPGAQPGAQPGAQPGAQPGAQPARQGDHCPLGPGRCCRLHTVRASLEDLGWADWVLSPREVQVTMCIGACPSQFRAANLHAQIKTSLHRLRPDTVPAPCCVPASYNPMVLIQRTDTGVSLQTYDDLLARDCHCI
1.3

Query GLP-1 activity (EC50, pM) for MLC009 (ligand, Moiety A (HOOC-(CH2)16-CO-gGlu-2XADO) on 15K of Linker (46K of fusion polypeptide)) HGEGTFTSDVSSYLEEQAAREFIAWLVRGGGGQEPGQEPGQEPGQKPGQEPGQEPGQEPGQEPGAQPGAQPARQGDHCPLGPGRCCRLHTVRASLEDLGWADWVLSPREVQVTMCIGACPSQFRAANLHAQIKTSLHRLRPDTVPAPCCVPASYNPMVLIQRTDTGVSLQTYDDLLARDCHCI
1.8

Query GLP-1 activity (EC50, pM) for MLC005 (ligand, Moiety A (HOOC-(CH2)16-CO-gGlu-2XADO) on 12K of Linker (43K of fusion polypeptide)) HGEGTFTSDVSSYLEEQAAREFIAWLVRGGGGQEPGQEPGQEKGQEPGQEPGQEPGQEPGQEPGAQPGAQPARQGDHCPLGPGRCCRLHTVRASLEDLGWADWVLSPREVQVTMCIGACPSQFRAANLHAQIKTSLHRLRPDTVPAPCCVPASYNPMVLIQRTDTGVSLQTYDDLLARDCHCI
3

Query GLP-1 activity (EC50, pM) for MLC083 (ligand, Moiety B (HOOC-(CH2)16-CO-gGlu-2XADO-EDA-CO-CH2) on 39C of Linker (70C of fusion polypeptide)) HGEGTFTSDVSSYLEEQAAKEFIAWLVRGGGGQEPGAQPGQEPGAQPGQEPGAQPGQEPGAQPGQEPGQCPGQEPGAQPGAQPGAQPGAQPGAQPGAQPGAQPGAQPGAQPARQGDHCPLGPGRCCRLHTVRASLEDLGWADWVLSPREVQVTMCIGACPSQFRAANLHAQIKTSLHRLKPDTVPAPCCVPASYNPMVLIQKTDTGVSLQTYDDLLAKDCHCI
1.7

Query GLP-1 activity (EC50, pM) for MLC021 (ligand) HGEGTFTSDVSSYLEEQAAKEFIAWLVRGGGGQEPGAQPGQEPGAQPGQEPGAQPGQEPGAQPGQEPGAQPGQEPGAQPGAQPGAQPGAQPGAQPGAQPGAQPGAQPGAQPARQGDHCPLGPGRCCRLHTVRASLEDLGWADWVLSPREVQVTMCIGACPSQFRAANLHAQIKTSLHRLKPDTVPAPCCVPASYNPMVLIQKTDTGVSLQTYDDLLAKDCHCI
5.7

Query GLP-1 activity (EC50, pM) for MLC008 (ligand, Moiety A (HOOC-(CH2)16-CO-gGlu-2XADO) on 6K of Linker (37K of fusion polypeptide)) HGEGTFTSDVSSYLEEQAAREFIAWLVRGGGGQEPGKEPGQEPGQEPGQEPGQEPGQEPGQEPGAQPGAQPARQGDHCPLGPGRCCRLHTVRASLEDLGWADWVLSPREVQVTMCIGACPSQFRAANLHAQIKTSLHRLRPDTVPAPCCVPASYNPMVLIQRTDTGVSLQTYDDLLARDCHCI
4.3

Where do the numbers come from? From patent US20220017589A1.
